Molecular target: ODC from the rat liver (Rattus norvegicus)
Sequence (P09057 1-461): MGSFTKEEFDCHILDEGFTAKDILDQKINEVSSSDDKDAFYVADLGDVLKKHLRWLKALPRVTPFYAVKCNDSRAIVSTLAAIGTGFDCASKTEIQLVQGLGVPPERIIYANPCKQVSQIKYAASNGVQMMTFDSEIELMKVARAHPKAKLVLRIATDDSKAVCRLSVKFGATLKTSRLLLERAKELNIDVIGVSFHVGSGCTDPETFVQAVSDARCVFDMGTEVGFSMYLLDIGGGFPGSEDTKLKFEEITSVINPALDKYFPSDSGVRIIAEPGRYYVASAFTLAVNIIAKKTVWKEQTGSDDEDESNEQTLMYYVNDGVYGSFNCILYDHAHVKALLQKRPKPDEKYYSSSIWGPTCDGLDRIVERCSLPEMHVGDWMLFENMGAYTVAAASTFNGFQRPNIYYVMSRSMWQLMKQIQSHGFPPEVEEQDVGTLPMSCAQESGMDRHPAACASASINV
Where a name gives a salt, the structure may show the parent alone.
endpoint: IC50 (nM)

molecule: CC(CCN)ON (stereo not drawn) [Example 9, 3-Aminooxy-1-butylamine dihydrochloride]
uom: nM
IC50: 410
//
molecule: CC(CN)CON (stereo not drawn) [Example 7, sulfate]
uom: nM
IC50: 27
//
molecule: CCC(N)CCON (stereo not drawn) [Example 4, 1-aminooxy-3-pentylamine dihydrochloride]
uom: nM
IC50: 360
//
molecule: NOCC[C@H](N)CO [Example 6, sulfate]
uom: nM
IC50: 440
//
molecule: CC(N)CCON (stereo not drawn) [Example 3, 4-Aminooxy-2-butylamine dihydrochloride]
uom: nM
IC50: 19
//
molecule: C[C@@H](N)CCON [Example 2, dihydrochloride]
uom: nM
IC50: 27
//
molecule: CC(C)(N)CCON [Example 5, dihydrochloride]
uom: nM
IC50: 300

[1] CC(N)C(C)CON (stereo not drawn) [Example 10, 4-Aminooxy-3-methyl-2-butylamine sulfate]
[2] C[C@H](N)CCON [Example 1, dihydrochloride]
Problem: Kindly identify the item with the lower IC50 figure among these two: 1 and 2 Provide the label of your selected option as the answer.
Solution: 2
